# tested-system: T1, rGyr_fl Y851F (full-length reverse gyrase) (Thermotoga maritima, UniProt O51934 1-1104, Y851F)
# T1 sequence: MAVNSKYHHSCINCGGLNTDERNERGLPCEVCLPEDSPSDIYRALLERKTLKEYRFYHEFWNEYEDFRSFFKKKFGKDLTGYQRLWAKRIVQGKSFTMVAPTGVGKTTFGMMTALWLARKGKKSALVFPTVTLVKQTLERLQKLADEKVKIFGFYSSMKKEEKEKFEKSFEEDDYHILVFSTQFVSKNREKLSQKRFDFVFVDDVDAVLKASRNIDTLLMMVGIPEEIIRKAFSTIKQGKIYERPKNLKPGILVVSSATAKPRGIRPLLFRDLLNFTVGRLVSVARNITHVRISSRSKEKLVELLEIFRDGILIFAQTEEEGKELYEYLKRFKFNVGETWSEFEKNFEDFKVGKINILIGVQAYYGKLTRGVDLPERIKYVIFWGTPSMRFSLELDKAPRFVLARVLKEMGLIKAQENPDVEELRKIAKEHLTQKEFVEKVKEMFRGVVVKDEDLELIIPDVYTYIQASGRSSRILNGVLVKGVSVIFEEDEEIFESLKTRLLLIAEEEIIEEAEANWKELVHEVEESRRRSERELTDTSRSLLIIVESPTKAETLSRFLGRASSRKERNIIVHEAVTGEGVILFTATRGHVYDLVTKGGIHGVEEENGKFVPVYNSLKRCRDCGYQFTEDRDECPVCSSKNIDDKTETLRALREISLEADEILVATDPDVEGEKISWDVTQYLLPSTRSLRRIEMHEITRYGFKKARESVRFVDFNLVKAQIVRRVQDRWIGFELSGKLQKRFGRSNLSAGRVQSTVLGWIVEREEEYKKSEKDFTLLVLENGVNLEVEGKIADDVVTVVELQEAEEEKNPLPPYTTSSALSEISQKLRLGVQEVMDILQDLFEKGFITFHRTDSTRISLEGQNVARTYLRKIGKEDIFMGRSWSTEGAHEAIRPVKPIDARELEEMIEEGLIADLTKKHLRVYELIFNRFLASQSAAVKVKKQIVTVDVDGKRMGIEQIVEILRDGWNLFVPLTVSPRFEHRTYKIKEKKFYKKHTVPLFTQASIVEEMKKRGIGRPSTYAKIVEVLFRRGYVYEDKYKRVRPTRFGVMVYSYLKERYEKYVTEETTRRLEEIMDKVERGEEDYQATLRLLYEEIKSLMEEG
# test-protocol: fluorescence anisotropy
outcome-measure: Kd (nM)
Give bare numbers, in nM.

Prompt: What value of Kd has been recorded for this entry: 60-base ssDNA (ssDNA) DNA: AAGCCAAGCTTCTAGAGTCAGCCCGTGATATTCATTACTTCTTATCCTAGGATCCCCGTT
Completion: 46
